# studyTarget: human CCR8 (human, UniProt P51685 1-355)
# Sequence (P51685 whole entry): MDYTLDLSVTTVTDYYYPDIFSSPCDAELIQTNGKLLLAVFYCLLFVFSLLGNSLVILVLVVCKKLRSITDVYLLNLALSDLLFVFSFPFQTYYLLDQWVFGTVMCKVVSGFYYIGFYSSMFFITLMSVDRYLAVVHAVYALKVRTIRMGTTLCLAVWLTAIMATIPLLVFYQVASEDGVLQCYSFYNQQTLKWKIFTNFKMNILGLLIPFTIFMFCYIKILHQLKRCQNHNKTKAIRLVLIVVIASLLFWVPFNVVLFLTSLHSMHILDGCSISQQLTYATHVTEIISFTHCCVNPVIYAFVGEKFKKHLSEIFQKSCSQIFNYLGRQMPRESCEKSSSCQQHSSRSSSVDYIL
# assayProtocol: cell-based or functional assay
Percent Inhibition (IC50 nM) of CCL1-dependent chemotaxis of HUT78 cells strictly less than 8 nM = Fulfilled. Otherwise Not fulfilled.

binder	classLabel
Antibody 2.2 IgG1 (LC: F2I_P51S_H53Q_L103V_N148K, HC: K87N_S94N_V98A)(LC: Y25A, HC: A71L_D72K) (antibody, V domains shown, Afucosylated IgG1) VH: QVQLVESGGGVVQPGRSLRLSCAASGFTFSNYGMHWVRQAPGKGLEWVAVISYDGSNKFYLKSVKGRFTISRDNSKNTLYLQMNSLRAEDTAVYYCARAGGIGRFDYWGQGTLVTVSS VL: DIVMTQTPLSLSVTPGQPASISCKASQSLLHSDGKTYLFWYLQKPGQSPQLLIYEVSNRFSGVPDRFSGSGSGTDFTLKISRVEAEDVGVYYCMQTLKLPLTFGGGTKVEIKR	Fulfilled
Antibody 3.0 IgG1 (antibody, V domains shown) VH: EVQLVESGGGLVKPGGSLRLSCAASGFIFSNAWMSWVRQAPGKGLEWVARIKRRTDGGTTDYAAPVKDRFTISRDDSKNTLFLQMNSLKTEDTAVYYCTTVTMVRGVIADYWGQGTLVTVSS VL: EIVLTQSPGTLSLSPGERATLSCRASQSVSSGSLAWYQQKLGQAPRLLIYGASSRATGIPDRFSGSGSGTDFTLTISSLEPEDFAVYYCQQYGSSRTFGQGTKVELKR	Fulfilled
Antibody 4.0 IgG1 (antibody, V domains shown) VH: EVQLVESGGGLVKPGGSLRLSCAASGFIFSNAWMSWVRQAPGKGLEWVGRIKRKTDGGTTDYAAPVKGRFTISRDDSKNTLYLLMNSLKIEDTAVYYCTVVTLVRGIIFDYWGQGTLVTVSS VL: EIVLTQSPGTLSLSPGESATLSCRVSQSVSSSQLAWYQQKPGQAPRLLIYGASSRATGIPDRFSGSGSGTDFTLTISRLEPEDFAVYYCQQYGNSRTFGQGTKVEIKR	Not fulfilled
Antibody 5.0 IgG1 (antibody, V domains shown) VH: QVQLVESGGGVVQPGRSLRLSCAASGFTFSSYGMHWVRQAPGKGLEWVAVISYDGSNKYYADSVKGRFTISRDNSKNTLYLQMNSLRAEDTAVYYCARGRYFDWFLFDYWGQGTLVTVSS VL: DTVMTQTPLSLSVTPGQPASISCKSSQSLLHSDGKTYLFWYLQKPGQPPQLLISEVSNRFSGVPDRFSGSGSGTDFTLKISRVEAEDVGFYYCMQSLRLPLTFGGGTKVEIKR	Not fulfilled
Antibody 6.0 IgG1 (antibody, V domains shown) VH: QVQLVESGGGVVQPGRSLRLSCEASGFTFSSYVMHWVRQAPGKGLEWVSVISYDGSSQYYTDSVKGRFTISRDNSKNTLNLQMNSLRAEDTAVYYCVRGRLATAILFDYWGQGTLVTVSS VL: DILMTQTPLSLSVTPGQPASISCKSSQSLLYSDGKTYLFWYLQRPGQPPQLLIYEVSNRFSGVPDRFSGSGSGTDFTLKISRVEAEDVGIYYCMQSIKLPLTFGGGTKVEIKR	Not fulfilled
